Counter-ions that a name gives are not always drawn.
compounds and their reported melting point

Past entries and their recorded results:
compound	reported_result
CC(C)Oc1ccc(-c2nn(C(C)c3nc4ccccc4c(=O)n3-c3ccccc3)c3ncnc(N)c23)cc1F (stereo not drawn) (as salt: potassium)	236 to 239 °C
Cc1n[nH]c2cc(-c3nn(C(C)c4cc5cccc(Cl)c5c(=O)n4-c4ccccc4)c4ncnc(N)c34)ccc12 (stereo not drawn)	289 to 291 °C

Below: the item to evaluate.
Briefly, melting point measured for CC(C)Oc1ccc(-c2nn(C(C)c3cc4cccc(F)c4c(=O)n3-c3ccccc3)c3ncnc(N)c23)cc1F (stereo not drawn) (as salt: potassium) : 264 to 266 °C

---

Target: PI3Kβ (Homo sapiens)
Sequence (P42338 whole entry, one chain of several): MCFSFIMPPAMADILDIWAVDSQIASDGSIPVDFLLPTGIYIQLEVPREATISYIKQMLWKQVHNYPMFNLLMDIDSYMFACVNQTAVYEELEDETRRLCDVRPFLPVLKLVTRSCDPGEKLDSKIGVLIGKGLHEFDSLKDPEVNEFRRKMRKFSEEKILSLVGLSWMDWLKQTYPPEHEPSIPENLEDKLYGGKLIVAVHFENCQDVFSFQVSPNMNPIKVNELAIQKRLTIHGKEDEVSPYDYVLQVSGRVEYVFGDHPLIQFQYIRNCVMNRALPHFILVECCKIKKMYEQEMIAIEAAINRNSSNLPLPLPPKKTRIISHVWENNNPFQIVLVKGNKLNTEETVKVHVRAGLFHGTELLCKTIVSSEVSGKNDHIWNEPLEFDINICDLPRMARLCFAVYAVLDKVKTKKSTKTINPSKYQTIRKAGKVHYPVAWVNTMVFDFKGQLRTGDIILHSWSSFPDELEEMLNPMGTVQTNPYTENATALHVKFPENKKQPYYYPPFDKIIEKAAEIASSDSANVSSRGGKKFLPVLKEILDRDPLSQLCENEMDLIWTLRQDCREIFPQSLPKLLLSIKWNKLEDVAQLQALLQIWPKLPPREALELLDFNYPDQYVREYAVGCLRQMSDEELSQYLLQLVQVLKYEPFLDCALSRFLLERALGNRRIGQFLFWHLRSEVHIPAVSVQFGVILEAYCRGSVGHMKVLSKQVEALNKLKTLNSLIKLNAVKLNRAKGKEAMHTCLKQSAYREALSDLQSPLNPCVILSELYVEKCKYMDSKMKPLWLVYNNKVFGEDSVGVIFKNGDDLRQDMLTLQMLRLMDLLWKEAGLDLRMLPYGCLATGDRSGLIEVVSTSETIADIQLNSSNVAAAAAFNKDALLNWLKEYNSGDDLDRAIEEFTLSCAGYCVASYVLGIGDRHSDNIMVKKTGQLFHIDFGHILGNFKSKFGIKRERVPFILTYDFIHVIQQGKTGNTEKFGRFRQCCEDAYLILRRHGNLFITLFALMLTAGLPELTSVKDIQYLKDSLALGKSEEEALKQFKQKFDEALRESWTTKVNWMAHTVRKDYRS
Test: Fluorescent determination of PI3Kinase enzyme activity (HTRF), PI3Kβ
Format: biochemical
Excerpt: Fluorescent Determination of PI3Kinase Enzyme Activity Phosphoinositide 3 kinases (PI3K) belong to a class of Lipid kinases that play a critical role in the regulation of several key cellular processes. […] The homogenous time resolved fluorescence (HTRF) assay allows detection of 3,4,5-triphosphate (PIP3) formed as a result of phosphorylation of phosphotidylinositol 4,5-biphosphate (PIP2) by PI3K isoforms such as α, […], γ or δ. […]
parameter_measured: inhibition at 1 µM

compound	test_system	inhibition at 1 µM
C[C@@H](c1cc2cccc(F)c2c(=O)n1-c1ccccc1)n1nc(-c2ccc(O)c(F)c2)c2c(N)ncnc21 [Example 15a]	PI3Kβ (Homo sapiens)	10 to 20%
COc1ccc(-c2nn(C(C)c3nc4ccccc4c(=O)n3-c3ccccc3)c3ncnc(N)c23)cc1NS(C)(=O)=O (stereo not shown)	PI3Kβ (Homo sapiens)	20 to 40%
C[C@H](c1cc2cccc(Cl)c2c(=O)n1-c1ccccc1)n1nc(-c2ccc(O)c(F)c2)c2c(N)ncnc21 [Example 14b]	PI3Kβ (Homo sapiens)	20 to 40%

Below: the item to evaluate.
Briefly, inhibition at 1 µM measured for C[C@H](c1nc2cccc(F)c2c(=O)n1-c1ccccc1)n1nc(-c2ccc(O)c(F)c2)c2c(N)ncnc21 [Example 16b] : 0 to 10%

---

molecular target: PI3Kδ (Homo sapiens, UniProt O00329); experiment: Fluorescent determination of PI3Kinase enzyme activity (HTRF), PI3Kδ; format: biochemical; settings: 100 nM (underlined values: 300 nM)
Sequence (O00329 whole entry): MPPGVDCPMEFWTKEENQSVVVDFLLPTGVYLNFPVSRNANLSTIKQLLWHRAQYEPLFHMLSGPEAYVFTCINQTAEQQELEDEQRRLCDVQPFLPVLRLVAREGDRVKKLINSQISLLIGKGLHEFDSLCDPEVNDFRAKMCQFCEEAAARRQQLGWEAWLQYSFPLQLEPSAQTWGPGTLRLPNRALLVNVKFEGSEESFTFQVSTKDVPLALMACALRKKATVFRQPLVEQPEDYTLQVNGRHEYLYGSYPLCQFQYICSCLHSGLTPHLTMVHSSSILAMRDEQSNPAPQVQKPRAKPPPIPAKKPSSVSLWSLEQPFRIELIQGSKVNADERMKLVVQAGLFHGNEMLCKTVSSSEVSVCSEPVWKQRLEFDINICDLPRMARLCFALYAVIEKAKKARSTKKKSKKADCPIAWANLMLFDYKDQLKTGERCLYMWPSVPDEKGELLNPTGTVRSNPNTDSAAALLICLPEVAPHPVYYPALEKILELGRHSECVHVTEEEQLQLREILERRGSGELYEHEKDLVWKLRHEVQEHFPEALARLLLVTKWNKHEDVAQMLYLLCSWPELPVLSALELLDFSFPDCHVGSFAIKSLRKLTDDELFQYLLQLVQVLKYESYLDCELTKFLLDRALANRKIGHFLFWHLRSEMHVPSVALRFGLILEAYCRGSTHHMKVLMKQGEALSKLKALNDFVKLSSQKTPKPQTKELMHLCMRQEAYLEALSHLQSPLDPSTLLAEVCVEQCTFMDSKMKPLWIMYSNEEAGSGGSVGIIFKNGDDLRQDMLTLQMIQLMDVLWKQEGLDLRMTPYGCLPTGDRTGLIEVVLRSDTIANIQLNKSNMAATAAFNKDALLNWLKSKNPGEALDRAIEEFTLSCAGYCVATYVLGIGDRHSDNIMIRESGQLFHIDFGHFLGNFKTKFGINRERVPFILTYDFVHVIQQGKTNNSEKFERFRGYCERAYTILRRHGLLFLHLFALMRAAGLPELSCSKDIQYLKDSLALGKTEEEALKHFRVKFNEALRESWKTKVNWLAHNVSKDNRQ
Sequence (P27986 whole entry partner): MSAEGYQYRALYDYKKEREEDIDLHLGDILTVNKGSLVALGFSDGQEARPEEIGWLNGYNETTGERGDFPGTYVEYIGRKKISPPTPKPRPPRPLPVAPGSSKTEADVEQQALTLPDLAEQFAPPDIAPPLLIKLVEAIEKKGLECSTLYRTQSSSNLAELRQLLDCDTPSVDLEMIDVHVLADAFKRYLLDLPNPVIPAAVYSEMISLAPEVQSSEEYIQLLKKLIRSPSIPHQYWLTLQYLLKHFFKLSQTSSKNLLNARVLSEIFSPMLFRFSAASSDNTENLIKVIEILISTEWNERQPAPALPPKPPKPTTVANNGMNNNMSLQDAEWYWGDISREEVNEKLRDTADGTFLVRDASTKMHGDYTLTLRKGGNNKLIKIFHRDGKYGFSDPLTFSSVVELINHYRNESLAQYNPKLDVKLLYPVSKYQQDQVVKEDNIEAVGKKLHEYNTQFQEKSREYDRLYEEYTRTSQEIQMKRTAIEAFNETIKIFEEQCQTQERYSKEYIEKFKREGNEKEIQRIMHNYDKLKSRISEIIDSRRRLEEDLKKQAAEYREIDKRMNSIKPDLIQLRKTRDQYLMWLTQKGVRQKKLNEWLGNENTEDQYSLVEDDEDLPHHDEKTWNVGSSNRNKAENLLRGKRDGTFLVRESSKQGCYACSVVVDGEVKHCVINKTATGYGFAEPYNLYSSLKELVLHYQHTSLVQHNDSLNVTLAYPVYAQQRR
compounds and their reported inhibition at 0.1 µM

Past entries and their recorded results:
compound	test_system	reported_result
COc1ccc(-c2nn(C(C)c3cc4cccc(Cl)c4c(=O)n3-c3ccccc3)c3ncnc(N)c23)cc1NS(C)(=O)=O (stereo not drawn) [Example 20]	PI3Kδ (Homo sapiens, UniProt O00329)	80 to 100%
CC(C)Oc1ccc(-c2nn([C@@H](C)c3cc4ccccc4c(=O)n3-c3ccccc3)c3ncnc(N)c23)cc1F [Example 5a]	PI3Kδ (Homo sapiens, UniProt O00329)	80 to 100%
Cc1n[nH]c2cc(-c3nn(C(C)c4cc5cccc(Cl)c5c(=O)n4-c4ccccc4)c4ncnc(N)c34)ccc12 (stereo not drawn) [Example 21]	PI3Kδ (Homo sapiens, UniProt O00329)	80 to 100%
C[C@@H](c1cc2cccc(Cl)c2c(=O)n1-c1ccccc1)n1nc(-c2ccc(O)c(F)c2)c2c(N)ncnc21 [Example 14a]	PI3Kδ (Homo sapiens, UniProt O00329)	80 to 100%
C[C@@H](c1cc2cccc(Cl)c2c(=O)n1-c1ccccc1)n1nc(-c2ccc(OC(F)F)c(F)c2)c2c(N)ncnc21 [Example 17a]	PI3Kδ (Homo sapiens, UniProt O00329)	20 to 40%

Briefly, inhibition at 0.1 µM measured for CC(C)Oc1ccc(-c2nn(C(C)c3nc4cccc(F)c4c(=O)n3-c3ccccc3)c3ncnc(N)c23)cc1F (stereo not drawn) [Example 3] : 0 to 20%

Briefly, inhibition at 0.1 µM measured for CC(c1cc2cccc(F)c2c(=O)n1-c1ccccc1)n1nc(-c2ccc(O)c(F)c2)c2c(N)ncnc21 (stereo not drawn) [Example 15] : 40 to 60%

Briefly, inhibition at 0.1 µM measured for C[C@H](c1cc2cccc(F)c2c(=O)n1-c1ccccc1)n1nc(-c2ccc(O)c(F)c2)c2c(N)ncnc21 [Example 15b] : 20 to 40%

Briefly, inhibition at 0.1 µM measured for CC(C)Oc1ccc(-c2nn([C@@H](C)c3nc4ccccc4c(=O)n3-c3ccccc3)c3ncnc(N)c23)cc1F [Example 6a] : 80 to 100%

---

compounds and their reported inhibition at 0.1 µM
biological target: PI3Kδ (Homo sapiens); experiment: Fluorescent determination of PI3Kinase enzyme activity (HTRF), PI3Kδ; type: biochemical; conditions: 100 nM (underlined values: 300 nM)

Briefly, inhibition at 0.1 µM measured for C[C@H](c1cc2ccccc2c(=O)n1-c1ccccc1)n1nc(-c2ccc(O)c(F)c2)c2c(N)ncnc21 [Example 7b] : 40 to 60%

Briefly, inhibition at 0.1 µM measured for CC(c1cc2cccc(Cl)c2c(=O)n1-c1ccccc1)n1nc(-c2ccc(O)c(F)c2)c2c(N)ncnc21 (stereo not shown) [Example 14] : 60 to 80%

Briefly, inhibition at 0.1 µM measured for CC(C)Oc1ccc(-c2nn(C(C)c3cc4cccc(F)c4c(=O)n3-c3ccccc3)c3ncnc(N)c23)cc1F (stereo not shown) [Example 2] : 0 to 20%

Briefly, inhibition at 0.1 µM measured for C[C@H](c1cc2cccc(Cl)c2c(=O)n1-c1ccccc1)n1nc(-c2ccc(OC(F)F)c(F)c2)c2c(N)ncnc21 [Example 17b] : 80 to 100%

Briefly, inhibition at 0.1 µM measured for Cc1n[nH]c2cc(-c3nn([C@H](C)c4cc5cccc(Cl)c5c(=O)n4-c4ccccc4)c4ncnc(N)c34)ccc12 [Example 21b] : 80 to 100%

Briefly, inhibition at 0.1 µM measured for CC(C)Oc1ccc(-c2nn([C@H](C)c3cc4ccccc4c(=O)n3-c3ccccc3)c3ncnc(N)c23)cc1F [Example 5b] : 40 to 60%

Briefly, inhibition at 0.1 µM measured for COc1ccc(-c2nn(C(C)c3nc4ccccc4c(=O)n3-c3ccccc3)c3ncnc(N)c23)cc1NS(C)(=O)=O (stereo not shown) [Example 12] : 0 to 20%

---

Structures can show the parent of a compound that is named as a salt.
compounds and their reported melting point

compound	reported_result
C[C@H](c1cc2cccc(Cl)c2c(=O)n1-c1ccccc1)n1nc(-c2ccc(OC(F)F)c(F)c2)c2c(N)ncnc21 [Example 17b]	181 to 185 °C

Briefly, melting point measured for CC(c1cc2cccc(F)c2c(=O)n1-c1ccccc1)n1nc(-c2ccc(O)c(F)c2)c2c(N)ncnc21 (centres unmarked) [Example 15] : 228 to 229 °C

Briefly, melting point measured for CC(C)Oc1ccc(-c2nn([C@H](C)c3nc4ccccc4c(=O)n3-c3ccccc3)c3ncnc(N)c23)cc1F [Example 6b] : 192 to 195 °C

Briefly, melting point measured for CCC(c1nc2ccccc2c(=O)n1-c1ccccc1)n1nc(-c2ccc(OC(C)C)c(F)c2)c2c(N)ncnc21 (centres unmarked) [Example 22] : 261 to 263 °C

Briefly, melting point measured for COc1ccc(-c2nn([C@H](C)c3cc4cccc(Cl)c4c(=O)n3-c3ccccc3)c3ncnc(N)c23)cc1NS(C)(=O)=O [Example 20b] : 180 to 183 °C

Briefly, melting point measured for CC(c1nc2cccc(F)c2c(=O)n1-c1ccccc1)n1nc(-c2ccc(O)c(F)c2)c2c(N)ncnc21 (centres unmarked) [Example 16] : 212 to 214 °C

Briefly, melting point measured for CC(C)Oc1ccc(-c2nn(C(C)c3nc4ccc(F)cc4c(=O)n3-c3ccccc3)c3ncnc(N)c23)cc1F (centres unmarked) (as salt: potassium) [Example 4] : 215 to 218 °C

Briefly, melting point measured for Cc1n[nH]c2cc(-c3nn([C@H](C)c4cc5cccc(Cl)c5c(=O)n4-c4ccccc4)c4ncnc(N)c34)ccc12 [Example 21b] : 225 to 227 °C

Briefly, melting point measured for COc1ccc(-c2nn([C@H](C)c3cc4ccccc4c(=O)n3-c3ccccc3)c3ncnc(N)c23)cc1NS(C)(=O)=O [Example 9b] : 158 to 162 °C

Briefly, melting point measured for CC(c1nc2ccccc2c(=O)n1-c1ccccc1)n1nc(-c2ccc(O)c(F)c2)c2c(N)ncnc21 (centres unmarked) [Example 8] : 230 to 233 °C

---

molecular target: PI3Kδ (Homo sapiens, UniProt O00329); assay: Fluorescent determination of PI3Kinase enzyme activity (HTRF), PI3Kδ; format: biochemical; conditions: 100 nM (underlined values: 300 nM)
parameter_measured: inhibition at 0.1 µM

compound	reported_result
CC(c1nc2cccc(F)c2c(=O)n1-c1ccccc1)n1nc(-c2ccc(O)c(F)c2)c2c(N)ncnc21 (stereo not shown)	40 to 60%

Briefly, inhibition at 0.1 µM measured for CC(C)Oc1ccc(-c2nn([C@H](C)c3nc4ccccc4c(=O)n3-c3ccccc3)c3ncnc(N)c23)cc1F : 20 to 40%

Briefly, inhibition at 0.1 µM measured for COc1ccc(-c2nn([C@H](C)c3cc4ccccc4c(=O)n3-c3ccccc3)c3ncnc(N)c23)cc1NS(C)(=O)=O : 40 to 60%

Briefly, inhibition at 0.1 µM measured for C[C@H](c1nc2cccc(F)c2c(=O)n1-c1ccccc1)n1nc(-c2ccc(O)c(F)c2)c2c(N)ncnc21 [Example 16b] : 20 to 40%

Briefly, inhibition at 0.1 µM measured for CC(C)Oc1ccc(-c2nn(C(C)c3cc4ccccc4c(=O)n3-c3ccccc3)c3ncnc(N)c23)cc1F (stereo not shown) : 80 to 100%

Briefly, inhibition at 0.1 µM measured for C[C@H](c1cc2cccc(Cl)c2c(=O)n1-c1ccccc1)n1nc(-c2ccc(O)c(F)c2)c2c(N)ncnc21 [Example 14b] : 60 to 80%

Briefly, inhibition at 0.1 µM measured for C[C@@H](c1cc2cccc(F)c2c(=O)n1-c1ccccc1)n1nc(-c2ccc(O)c(F)c2)c2c(N)ncnc21 [Example 15a] : 80 to 100%

Reference source: patent US11352359B2
